Origin of values: paper PMC10825133

- Test system: HCC38 cells
- experiment: Resazurin-based cell viability assay, monotherapy drug screen
- Parameters: species or system human
- condition: HCC38; drug efficacy at highest tested dose (<0 cytotoxic, 0 cytostatic, >0 partial growth inhibition)
Measured GRmax values are reported for all entries that follow.

>  <compound>
CC[C@H](C)[C@H](NC(=O)[C@H]([C@@H](C)CC)N(C)C(C)=O)C(=O)N[C@H](C(=O)N[C@@H](CC(C)C)C(=O)[C@@]1(C)CO1)[C@@H](C)O

>  <GRmax>
−0.74

$$$$
>  <compound>
CC(C)C[C@H](NC(=O)CNC(=O)c1cc(Cl)ccc1Cl)B(O)O

>  <GRmax>
−0.99

$$$$
>  <compound>
COc1cccc2c1C(=O)c1c(O)c3c(c(O)c1C2=O)C[C@@](O)(C(=O)CO)C[C@@H]3O[C@H]1C[C@H](N)[C@@H](O)[C@H](C)O1 [Epirubicin]

>  <GRmax>
−0.03

$$$$
